Reference source for all entries: ChEMBL document CHEMBL1201862

Biological target: Hepatocyte nuclear factor 4-alpha (Homo sapiens, UniProt P41235);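 also: biochemical luminescence-based dose-response counterscreen measuring inhibition of HNF4 dimerization, run alongside a screen for blockers of ABHD5–perilipin-5 interaction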;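 also: split luciferase complementation of HNF4 fusion proteins in cell lysate measuring dimerization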
Sequence (P41235 whole entry, the tested form may be a part): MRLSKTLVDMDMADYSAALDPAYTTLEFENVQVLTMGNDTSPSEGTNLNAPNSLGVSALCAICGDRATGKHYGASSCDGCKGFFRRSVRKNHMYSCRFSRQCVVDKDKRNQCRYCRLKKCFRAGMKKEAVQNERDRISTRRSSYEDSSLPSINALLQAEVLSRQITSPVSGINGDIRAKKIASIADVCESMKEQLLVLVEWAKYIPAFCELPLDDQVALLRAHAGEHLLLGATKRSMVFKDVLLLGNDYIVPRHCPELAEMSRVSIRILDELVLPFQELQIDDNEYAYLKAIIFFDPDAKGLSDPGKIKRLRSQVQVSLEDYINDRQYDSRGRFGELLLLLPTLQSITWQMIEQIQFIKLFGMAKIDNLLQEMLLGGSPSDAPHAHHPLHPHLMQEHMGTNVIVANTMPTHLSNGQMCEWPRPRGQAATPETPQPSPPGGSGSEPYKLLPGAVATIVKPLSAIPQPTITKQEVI
Assay type: functional, cell-based
Active and inactive are the calls of the source.
measurement kind: IC50

// worked examples, IC50 included
INSERT INTO results (molecule, measurement_kind, experimental_value) VALUES
  ('C#CCN(C[C@@H]1[C@@H](OC(=O)Nc2cccs2)[C@@H](OC(=O)Nc2cccs2)Cn2c(=O)ccc(=O)n21)S(=O)(=O)c1ccc(C)cc1', 'IC50', '5.6 µM (active)'),
  ('CCN(CC)CCC(C)OC(c1ccccc1)c1ccccc1 (stereo not given)', 'IC50', '20.7 µM (inactive)'),
  ('Cc1ccc(C(=O)C2=C(O)C(=O)OC2c2ccc(Cl)cc2)cc1 (stereo not given)', 'IC50', '8.81 µM (active)'),
  ('Cc1cccc(C)c1NC(=O)C(c1ccccc1F)n1c(=O)c(-c2ccco2)nc2ccccc21 (stereo not given)', 'IC50', '2.48 µM (active)');

Consider now this further molecule.
**Query** Item under review: O=C1/C(=C/c2cccnc2)CC/C1=C\c1cccnc1 . Reported IC50?
**Result** 7.46 µM (active)

###

Read-out record for Cytochrome P450 2C9 (Homo sapiens, UniProt P11712): AC50

// worked examples, AC50 included
INSERT INTO assay_data (molecule, target_system, measurement_kind, experimental_value) VALUES
  ('CC(=O)NC1C(OCCOc2ccc(Cl)cc2Cl)OC(COC(C)=O)C(OC(C)=O)C1OC(C)=O (stereo not drawn)', 'Cytochrome P450 2C9 (Homo sapiens, UniProt P11712)', 'AC50', '4.47 µM (inconclusive)'),
  ('CCCC[C@@H]1C[C@H]1C(NC(=O)c1ccccc1)c1ccc(Cl)cc1 (stereo partly drawn)', 'Cytochrome P450 2C9 (Homo sapiens, UniProt P11712)', 'AC50', '2.51 µM (inconclusive)');

Consider now this further molecule.
**Query** Item under review: O=C1CS/C(=C\[N+](=O)[O-])N1c1ccc(OC(F)(F)F)cc1 . Reported AC50?
**Result** 15.8 µM (inconclusive)

###

Each entry below lists one item and its recorded IC50 value.
Target: Sentrin-specific protease 7 (Homo sapiens);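 also: Luminescence-based dose-response confirmation of ultra-high-throughput screening hits, measuring inhibition of SENP7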
Sequence (Q9BQF6 whole entry): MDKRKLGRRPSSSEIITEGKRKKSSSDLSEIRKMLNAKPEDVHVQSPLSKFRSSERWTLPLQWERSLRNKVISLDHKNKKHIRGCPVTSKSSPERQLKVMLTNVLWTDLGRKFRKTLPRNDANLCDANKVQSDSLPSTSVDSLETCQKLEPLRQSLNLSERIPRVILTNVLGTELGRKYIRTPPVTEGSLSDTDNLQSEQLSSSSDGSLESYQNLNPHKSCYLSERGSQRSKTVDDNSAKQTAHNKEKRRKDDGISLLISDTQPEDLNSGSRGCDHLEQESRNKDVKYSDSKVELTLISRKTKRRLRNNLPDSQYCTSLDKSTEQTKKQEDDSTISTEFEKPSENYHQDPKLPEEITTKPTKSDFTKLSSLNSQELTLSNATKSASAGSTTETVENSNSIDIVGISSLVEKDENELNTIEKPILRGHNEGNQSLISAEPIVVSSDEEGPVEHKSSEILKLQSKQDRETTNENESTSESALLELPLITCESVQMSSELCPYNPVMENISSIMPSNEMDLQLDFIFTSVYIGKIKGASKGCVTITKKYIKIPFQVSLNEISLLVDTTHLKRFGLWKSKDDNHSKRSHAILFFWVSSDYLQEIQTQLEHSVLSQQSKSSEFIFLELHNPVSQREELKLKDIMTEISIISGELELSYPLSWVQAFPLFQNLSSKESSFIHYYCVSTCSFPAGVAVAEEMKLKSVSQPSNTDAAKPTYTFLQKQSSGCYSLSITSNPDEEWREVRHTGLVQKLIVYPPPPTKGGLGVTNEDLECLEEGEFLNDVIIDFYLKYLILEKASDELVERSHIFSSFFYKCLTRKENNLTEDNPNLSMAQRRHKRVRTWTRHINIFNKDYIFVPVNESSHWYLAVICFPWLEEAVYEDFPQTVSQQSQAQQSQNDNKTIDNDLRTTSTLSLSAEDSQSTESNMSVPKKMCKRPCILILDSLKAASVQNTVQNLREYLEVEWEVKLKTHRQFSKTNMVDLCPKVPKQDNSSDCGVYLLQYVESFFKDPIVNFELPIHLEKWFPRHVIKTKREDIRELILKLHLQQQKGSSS
Type: functional
Calls of active or inactive are those of the source.

INSERT INTO assay_data (compound, experimental_value) VALUES
  ('CCCC1CCC(c2ccc(OCC)cc2)=CC1=O (configuration not stated)', '10.1 µM (active)'),
  ('N#Cc1c(NC(=O)CSc2nc[nH]n2)sc2c1CCCCC2', '5.65 µM (active)'),
  ('CCOC(=O)/C(=N\Nc1ncnc2ccccc12)c1ccc(C)cc1', '6.78 µM (active)'),
  ('O=[N+]([O-])c1ccc(CSc2nc3ccccc3o2)cc1', '7.69 µM (active)'),
  ('Cc1ccc(C(=O)Nc2cccc3cccnc23)cc1C', '3.98 µM (active)');

**Query** Hello, I am looking for reported IC50 with Sentrin-specific protease 7 (Homo sapiens) for COc1ccc(C(=O)Nc2cccc(C(=O)O)c2)cc1S(=O)(=O)N1CCCC1 . Could you help?
**Result** 6.06 µM (active)

**Query** Hello, I am looking for reported IC50 with Sentrin-specific protease 7 (Homo sapiens) for O=C(Nc1ccc2c(c1)CCC2)c1cccc(S(=O)(=O)Nc2ccccc2Cl)c1 . Could you help?
**Result** 23.9 µM (active)
